target: Syk kinase (Homo sapiens, UniProt P43405); construct: purchased; assay: Syk kinase inhibition, Caliper LabChip off-chip mobility-shift kinase assay; assay type: biochemical; conditions: read-out: Syk Enzyme IC50
Note to self: use True only for IC50 readings below 200 nM; a reading exactly at 200 nM still gets False.

Examples with answers:
Prompt line: Is IC50 strictly under 200 nM for the entry COc1cncc(-c2cc3cc[nH]c(=O)c3c(Nc3ccc4c(c3)C3CNCC4C3)n2)n1 (stereo not shown) ?
Response line: False

Prompt line: Does this compound meet the criterion IC50 < 200 nM? `CCNC(=O)c1ccc(Nc2nc(Nc3cc(C)ccn3)cc3ccn(C)c(=O)c23)cc1`
Response line: False

Prompt line: Here's an entry: `Cc1cc(Nc2nc(Nc3cc(C(F)(F)F)ccn3)cc3cc[nH]c(=O)c23)ccc1C1CCN(C2CC2)CC1` . Is its IC50 below 200 nM?
Response line: False

Prompt line: Dear reviewer, please state whether `Cc1ccnc(Nc2cc3cc[nH]c(=O)c3c(N3CC[C@H](CO)C3)n2)c1` has IC50 strictly beneath 200 nM.
Response line: False

Prompt line: Dear colleague, could you confirm whether IC50 of `Cc1ccnc(Nc2cc3ccn(C)c(=O)c3c(Nc3ccc(C4CCOCC4)nc3)n2)c1` falls below 200 nM? Thanks.
Response line: False

Next:
Prompt line: Does `COc1cncc(-c2cc3cc[nH]c(=O)c3c(Nc3ccc(C4CCN(CC5CC5)CC4)c(C)c3)n2)n1` have IC50 strictly under 200 nM?
Response line: True

Prompt line: Given COc1cncc(-c2cc3cc[nH]c(=O)c3c(Nc3ccc(C4CCN(C(C)C(=O)NC(C)C)CC4)c(C)c3)n2)n1 (stereo not shown) , is recorded IC50 strictly lower than 200 nM?
Response line: True

Prompt line: Determine whether this compound shows IC50 lower than 200 nM (ties excluded): `Nc1nc(Nc2cnccn2)cc2ccn(Cc3ccccc3)c(=O)c12`
Response line: False

Prompt line: Is the reported IC50 for `Nc1ncc(-c2cc3cc[nH]c(=O)c3c(NCCc3cccnc3)n2)cn1` strictly below 200 nM?
Response line: True

Prompt line: For this compound, is IC50 lower than 200 nM? `COc1cncc(-c2cc3cc[nH]c(=O)c3c(Nc3ccc(C4CN(C)C4)cc3)n2)n1`
Response line: True

Prompt line: # strict comparison: is reported IC50 < 200 nM? input = `CCN1CCN(CCc2ccc(Nc3nc(Nc4cc(C(F)(F)F)ccn4)cc4cc[nH]c(=O)c34)cc2)CC1`
Response line: True

Prompt line: Here's an entry: `COc1cncc(-c2cc3cc[nH]c(=O)c3c(Nc3ccc(C4CCN(C(=O)N5CCOCC5)CC4)c(C)c3)n2)n1` . Is its IC50 below 200 nM?
Response line: True

Prompt line: Input `O=c1[nH]ccc2cc(Nc3ccccn3)nc(NCCc3cccnc3)c12` ; condition: IC50 strictly below 200 nM. Does it hold?
Response line: False

Prompt line: Hello, is IC50 of the following compound strictly smaller than 200 nM? `COc1cncc(-c2cc3cc[nH]c(=O)c3c(Nc3ccc(CCN4CCN(CCC#N)CC4)cc3)n2)n1`
Response line: True

Prompt line: Is it true that IC50 reported for `COc1cncc(-c2cc3cc[nH]c(=O)c3c(Nc3ccc(C4CCN(C(=O)[C@H](C)OC)CC4)c(C)c3)n2)n1` is less than 200 nM?
Response line: True

Prompt line: Is it true that IC50 reported for `CC(C)Nc1nc(Nc2cc(C(N)=O)ccn2)cc2cc[nH]c(=O)c12` is less than 200 nM?
Response line: True
